Target: UniProt Q16620
Sequence (Q16620 32-822): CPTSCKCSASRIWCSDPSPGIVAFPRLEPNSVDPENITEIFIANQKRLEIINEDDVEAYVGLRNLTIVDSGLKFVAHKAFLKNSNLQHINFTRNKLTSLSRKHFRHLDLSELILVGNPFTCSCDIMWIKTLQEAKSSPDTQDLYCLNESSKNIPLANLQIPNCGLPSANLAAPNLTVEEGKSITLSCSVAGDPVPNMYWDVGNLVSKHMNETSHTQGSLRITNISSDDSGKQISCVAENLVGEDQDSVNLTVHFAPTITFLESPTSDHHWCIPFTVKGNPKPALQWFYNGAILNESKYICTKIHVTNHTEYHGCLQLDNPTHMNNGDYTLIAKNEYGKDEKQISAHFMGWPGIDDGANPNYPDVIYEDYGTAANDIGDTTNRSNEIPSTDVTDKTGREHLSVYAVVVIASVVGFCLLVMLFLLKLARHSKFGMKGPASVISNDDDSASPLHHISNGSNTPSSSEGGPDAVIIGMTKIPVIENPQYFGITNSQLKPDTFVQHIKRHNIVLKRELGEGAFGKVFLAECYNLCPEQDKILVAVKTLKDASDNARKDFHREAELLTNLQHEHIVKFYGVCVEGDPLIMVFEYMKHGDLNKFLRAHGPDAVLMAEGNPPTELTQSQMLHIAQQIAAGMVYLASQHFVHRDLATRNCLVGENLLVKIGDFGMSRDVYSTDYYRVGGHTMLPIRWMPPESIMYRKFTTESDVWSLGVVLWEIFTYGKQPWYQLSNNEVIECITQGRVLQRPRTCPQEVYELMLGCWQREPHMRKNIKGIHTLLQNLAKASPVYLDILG
Test: Caliper kinase profiling: NTRK2 (TRKB)
Conditions: 0.01 μM
Measurement Kind: inhibition of TrkB in panel of 11 kinases

* O=C(Nc1cnccn1)C1CCCN1c1nc2c(c(Nc3cc(C4CC4)[nH]n3)n1)CCC2 (single isomer, unassigned) [Compound 6b] | strongly inhibited
* O=C(Nc1ccc(F)nc1)C1CC(O)CN1c1nc2c(c(Nc3cc(C4CC4)[nH]n3)n1)CCC2 (single isomer, unassigned) [Compound 10d] | strongly inhibited
* O=C(Nc1ccc(F)nc1)C1CCN1c1nc2c(c(Nc3cc(C4CC4)[nH]n3)n1)CCC2 (racemic) [Compound 5] | strongly inhibited
* O=C(Nc1ccc(F)nc1)C1CC(O)CN1c1nc2c(c(Nc3cc(C4CC4)[nH]n3)n1)CCC2 (single isomer, unassigned) [Compound 10a] | strongly inhibited

* * *

System: Akt phosphorylation induced by IGF-1R in HT-29 cells
Assay: Western blot analysis of Akt phosphorylation induced by IGF-1R
Type: cell-based, Human
Conditions: 1 nM compound 2 h, then IGF-1 10 ng/mL 10 min; HT-29
Measurement Kind: phosphorylated AKT levels normalized to actin levels (pAKT/actin)
Could you respond with only the numeric value?

* O=C(Nc1ccc(F)nc1)C1CCCN1c1nc2c(c(Nc3cc(C4CC4)[nH]n3)n1)CCC2 (racemic) [Compound 2] | 0.91
* O=C(Nc1ccc(F)nc1)C1CCCCN1c1nc2c(c(Nc3cc(C4CCCC4)[nH]n3)n1)CCC2 (single isomer, unassigned) [Compound 17b] | 0.99

Now for another entry.
query: Name the recorded phosphorylated AKT levels normalized to actin levels (pAKT/actin) of the item O=C(Nc1ccc(F)nc1)C1CCCN1c1nc2c(c(Nc3cc(C4CCCC4)[nH]n3)n1)CCCC2 (single isomer, unassigned) [Compound 15a] in your answer.
result: 0.89

* * *

Tested on: MCF-7
Assay: Cell Titer-Glo cell viability: MCF-7
Assay type: cell-based
Conditions: Homo sapiens; MCF7, breast cancer; 72 h
From the text: Compound nos. […] This panel of cell lines includes an ER− breast carcinoma, primary breast ductal carcinoma, prostate adenocarcinoma, mammary adenocarcinoma, mammary ductal carcinoma, mammary ductal carcinoma, ovary adenocarcinoma, ER+ breast carcinoma, ER-HER2+ mammary ductal carcinoma and an ER+ mammary ductal carcinoma, respectively. This assay quantitates the ATP present in order to determine the number of viable cells in culture. […]
Measurement Kind: pIC50
pIC50 is defined as minus the log10 of a concentration measured in mol/L.

query: Name the recorded pIC50 of the item C[C@@]1(C(=O)Nc2ccc(F)nc2)CCCN1c1nc(Nc2cc(C3CC3)n[nH]2)c2cccn2n1 [BMS-754807, reference compound] in your answer.
result: 7.00

* * *

Molecular target: IR (Homo sapiens, UniProt P06213)
Construct: purchased Millipore 14-803
Sequence (P06213 28-1382): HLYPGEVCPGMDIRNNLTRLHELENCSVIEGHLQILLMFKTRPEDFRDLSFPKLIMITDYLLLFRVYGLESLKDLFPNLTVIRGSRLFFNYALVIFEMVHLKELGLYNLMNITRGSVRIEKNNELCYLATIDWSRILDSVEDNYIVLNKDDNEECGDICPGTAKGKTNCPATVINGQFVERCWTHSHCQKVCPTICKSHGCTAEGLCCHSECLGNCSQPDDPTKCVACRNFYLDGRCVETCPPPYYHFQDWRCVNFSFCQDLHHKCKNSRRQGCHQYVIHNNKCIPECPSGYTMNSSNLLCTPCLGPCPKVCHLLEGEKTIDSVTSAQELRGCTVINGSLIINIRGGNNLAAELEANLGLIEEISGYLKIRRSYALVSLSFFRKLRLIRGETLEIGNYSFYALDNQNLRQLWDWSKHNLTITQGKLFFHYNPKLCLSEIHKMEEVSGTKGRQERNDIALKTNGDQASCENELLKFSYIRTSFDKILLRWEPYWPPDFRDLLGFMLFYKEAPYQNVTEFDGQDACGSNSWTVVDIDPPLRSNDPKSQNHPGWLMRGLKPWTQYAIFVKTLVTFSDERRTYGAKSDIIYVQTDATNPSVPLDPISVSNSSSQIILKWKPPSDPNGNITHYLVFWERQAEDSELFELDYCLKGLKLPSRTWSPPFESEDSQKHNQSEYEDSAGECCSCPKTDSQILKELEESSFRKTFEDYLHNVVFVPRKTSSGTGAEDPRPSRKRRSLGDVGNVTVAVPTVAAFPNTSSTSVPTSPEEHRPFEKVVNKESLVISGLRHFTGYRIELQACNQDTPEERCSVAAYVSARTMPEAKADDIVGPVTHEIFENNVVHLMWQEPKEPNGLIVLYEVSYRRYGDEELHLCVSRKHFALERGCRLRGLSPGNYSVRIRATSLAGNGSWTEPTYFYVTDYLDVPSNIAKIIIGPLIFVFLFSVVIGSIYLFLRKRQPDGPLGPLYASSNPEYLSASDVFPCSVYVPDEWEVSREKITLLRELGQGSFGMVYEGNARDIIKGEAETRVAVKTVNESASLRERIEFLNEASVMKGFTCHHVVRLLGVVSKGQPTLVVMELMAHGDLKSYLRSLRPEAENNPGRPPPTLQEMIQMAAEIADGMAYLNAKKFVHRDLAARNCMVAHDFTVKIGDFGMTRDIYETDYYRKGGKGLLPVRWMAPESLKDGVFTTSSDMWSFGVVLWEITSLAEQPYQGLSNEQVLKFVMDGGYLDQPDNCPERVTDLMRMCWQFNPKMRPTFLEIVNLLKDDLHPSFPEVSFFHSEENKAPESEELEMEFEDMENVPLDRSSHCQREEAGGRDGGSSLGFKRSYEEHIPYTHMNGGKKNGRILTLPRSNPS
Assay: In vitro IR enzymatic assay (ADP-Glo kinase assay)
Format: biochemical
Conditions: IR, ATP 50 μM, run N1; read-out: IC50 (M) N1
Protocol: IC50 values of the compounds of the invention against IGF-1R and IR were measured in vitro using an ADP-Glo kinase assay Kit (Promega). […] Kinase reactions in both assays were conducted at 30° C. for 20 min with increasing concentrations of compounds of the invention.
Measurement Kind: IC50 (M)
I only need the number, in M, no unit after it.

query: Name the recorded IC50 of the item O=C(Nc1ccc(F)nc1)C1CCCN1c1nc2c(c(Nc3cc(C4CC4)[nH]n3)n1)CCC2 (single isomer, unassigned) in your answer.
result: 5.51e-09

These data points were gathered from patent US9422267B2.
